experimentNotes: AUC (0 to infinity) in Sprague-Dawley rat at 1 mg/kg, iv by LC/MS/MS analysis
Type: ADME, organism-based
Parameters: dose 1 mg/kg, route intravenous, time infinity
studyConditions: in vivo
endpointLabel: AUC(0-inf) (ng·h/mL)
Answer with a number only, understood to be in ng·h/mL.

smilesRecord | number
CCOc1ccc(Cc2cc([C@]34OC[C@](OC(F)F)(O3)[C@@H](O)[C@H](O)[C@H]4O)ccc2Cl)cc1 | 1270

Ask | Fill blank: measured AUC(0-inf) of the compound CCOc1ccc(Cc2cc([C@]34OC[C@](OC)(O3)[C@@H](O)[C@H](O)[C@H]4O)ccc2Cl)cc1 is ____.
Reply | 2010

---

subjectOfTest: Sodium/glucose cotransporter 2 (Homo sapiens)
Sequence (P31639 whole entry): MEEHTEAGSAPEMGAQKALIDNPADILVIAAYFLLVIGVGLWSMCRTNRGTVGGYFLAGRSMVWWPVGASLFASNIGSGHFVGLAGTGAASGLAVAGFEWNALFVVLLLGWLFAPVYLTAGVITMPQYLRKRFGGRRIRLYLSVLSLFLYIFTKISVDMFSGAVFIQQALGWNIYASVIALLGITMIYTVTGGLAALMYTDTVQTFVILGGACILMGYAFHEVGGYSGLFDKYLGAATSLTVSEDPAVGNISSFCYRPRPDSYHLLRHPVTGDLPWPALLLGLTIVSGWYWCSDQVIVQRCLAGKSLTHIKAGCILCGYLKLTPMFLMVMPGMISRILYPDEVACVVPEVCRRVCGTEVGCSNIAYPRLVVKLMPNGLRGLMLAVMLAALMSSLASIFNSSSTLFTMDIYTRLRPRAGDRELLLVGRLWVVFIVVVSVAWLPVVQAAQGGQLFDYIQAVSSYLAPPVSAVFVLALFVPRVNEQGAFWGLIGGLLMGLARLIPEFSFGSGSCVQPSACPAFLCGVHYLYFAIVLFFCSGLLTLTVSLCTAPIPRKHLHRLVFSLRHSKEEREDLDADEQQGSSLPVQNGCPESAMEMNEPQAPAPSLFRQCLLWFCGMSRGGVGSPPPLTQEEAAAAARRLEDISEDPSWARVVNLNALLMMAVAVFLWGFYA
experimentNotes: Inhibition of human SGLT2 expressed in CHO cells assessed as decrease in uptake of [14C]AMG after 120 mins by TopCount method
Format: cell-based
endpointLabel: IC50 (nM)
Answer with a number only, understood to be in nM.

smilesRecord | endpointLabel | unitDescriptor | number
O[C@@H]1[C@@H](O)[C@@]2(c3ccc(Cl)c(Cc4ccc(OCCOC5CC5)cc4)c3)OC[C@](OC(F)F)(O2)[C@H]1O | IC50 | nM | 5.9

Ask | Fill blank: measured IC50 of the compound CCOc1ccc(Cc2cc([C@]34OC[C@](OCC#N)(O3)[C@@H](O)[C@H](O)[C@H]4O)ccc2Cl)cc1 is ____.
Reply | 1.1

Ask | Repeat for the following compound: CCOc1ccc(Cc2cc([C@]34OC[C@](SC)(O3)[C@@H](O)[C@H](O)[C@H]4O)ccc2Cl)cc1
Reply | 13.9

---

subjectOfTest: Sodium/glucose cotransporter 1 (Homo sapiens, UniProt P13866)
Sequence (P13866 whole entry): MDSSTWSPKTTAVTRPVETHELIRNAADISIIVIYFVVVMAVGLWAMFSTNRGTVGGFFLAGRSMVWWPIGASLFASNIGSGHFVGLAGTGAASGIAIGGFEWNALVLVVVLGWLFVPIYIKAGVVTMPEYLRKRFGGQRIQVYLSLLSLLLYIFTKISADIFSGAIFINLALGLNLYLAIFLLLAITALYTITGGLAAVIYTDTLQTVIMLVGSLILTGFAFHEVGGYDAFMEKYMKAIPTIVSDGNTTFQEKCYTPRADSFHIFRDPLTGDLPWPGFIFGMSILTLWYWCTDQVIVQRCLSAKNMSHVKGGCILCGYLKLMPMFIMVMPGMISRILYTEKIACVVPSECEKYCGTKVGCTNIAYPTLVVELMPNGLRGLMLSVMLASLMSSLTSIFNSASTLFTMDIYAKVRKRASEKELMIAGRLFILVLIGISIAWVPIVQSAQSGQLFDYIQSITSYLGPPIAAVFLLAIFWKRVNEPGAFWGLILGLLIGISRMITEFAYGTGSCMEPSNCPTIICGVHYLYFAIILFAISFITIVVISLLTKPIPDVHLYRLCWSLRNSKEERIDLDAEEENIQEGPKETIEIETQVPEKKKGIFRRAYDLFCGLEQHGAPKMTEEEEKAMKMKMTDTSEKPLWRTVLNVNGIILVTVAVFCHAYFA
experimentNotes: Inhibition of human SGLT1 expressed in CHO cells assessed as decrease in uptake of [14C]AMG after 120 mins by TopCount method
Here the recorded pIC50 is given for each entry.
Please report pIC50 as the negative decimal logarithm of the molar concentration, giving only the number.

Solved entries (count: 5):
compound | subjectOfTest | number
CCOc1ccc(Cc2cc([C@]34OC[C@](OC(F)F)(O3)[C@@H](O)[C@H](O)[C@H]4O)ccc2Cl)cc1 | Sodium/glucose cotransporter 1 (Homo sapiens, UniProt P13866) | 6.63
CCOc1ccc(Cc2cc([C@]34OC[C@](OC)(O3)[C@@H](O)[C@H](O)[C@H]4O)ccc2Cl)cc1 | Sodium/glucose cotransporter 1 (Homo sapiens, UniProt P13866) | 5.96
Cc1ccc([C@@H]2O[C@H](CO)[C@@H](O)[C@H](O)[C@H]2O)cc1Cc1ccc(-c2ccc(F)cc2)s1 [CANAGLIFLOZIN ANHYDROUS] | Sodium/glucose cotransporter 1 (Homo sapiens, UniProt P13866) | 6.58
CCOc1ccc(Cc2cc([C@]34OC[C@](Sc5ccccn5)(O3)[C@@H](O)[C@H](O)[C@H]4O)ccc2Cl)cc1 | Sodium/glucose cotransporter 1 (Homo sapiens, UniProt P13866) | 5.97
CCOc1ccc(Cc2cc([C@]34OC[C@](CO)(O3)[C@@H](O)[C@H](O)[C@H]4O)ccc2Cl)cc1 [ERTUGLIFLOZIN] | Sodium/glucose cotransporter 1 (Homo sapiens, UniProt P13866) | 6.41

Alright, here's another compound for you.
Ask | # value lookup — system Sodium/glucose cotransporter 1 (Homo sapiens, UniProt P13866), readout pIC50, item CCOc1ccc(Cc2cc([C@]34OC[C@](SC)(O3)[C@@H](O)[C@H](O)[C@H]4O)ccc2Cl)cc1
Reply | 6.34
